- study target: CB1 (Homo sapiens)
- Sequence (P21554 whole entry): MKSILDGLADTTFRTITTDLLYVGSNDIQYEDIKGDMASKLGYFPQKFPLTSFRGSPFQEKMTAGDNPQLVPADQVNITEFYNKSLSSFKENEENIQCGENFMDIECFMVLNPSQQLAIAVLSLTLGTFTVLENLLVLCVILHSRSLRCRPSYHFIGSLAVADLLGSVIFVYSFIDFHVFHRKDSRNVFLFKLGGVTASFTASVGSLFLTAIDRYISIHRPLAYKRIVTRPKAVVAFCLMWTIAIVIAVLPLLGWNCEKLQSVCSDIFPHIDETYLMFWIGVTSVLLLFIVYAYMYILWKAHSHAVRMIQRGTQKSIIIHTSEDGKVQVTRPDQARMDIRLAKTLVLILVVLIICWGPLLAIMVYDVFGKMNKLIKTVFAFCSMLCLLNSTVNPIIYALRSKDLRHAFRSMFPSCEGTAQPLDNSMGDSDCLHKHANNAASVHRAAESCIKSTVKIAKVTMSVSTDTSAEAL
- Format: cell-based

compound | Kb (µM)
CCNC(=O)N1CCC[C@@H](Nc2ncnc3c2nc(-c2ccccc2Cl)n3-c2ccc(Cl)cc2)C1 [Compound 15c] | 1.5
CC(=O)NC1CCN(c2ncnc3c2nc(-c2ccccc2Cl)n3-c2ccc(Cl)cc2)CC1 [Compound 17g] | 0.631
CS(=O)(=O)N1CCC[C@H](Nc2ncnc3c2nc(-c2ccccc2Cl)n3-c2ccc(Cl)cc2)C1 [Compound 16e] | 6.04
CCNC(=O)N1CCC(Nc2ncnc3c2nc(-c2ccccc2Cl)n3-c2ccc(Cl)cc2)CC1 [Compound 14c] | 1.15
Clc1ccc(-n2c(-c3ccccc3Cl)nc3c(NC4CCNCC4)ncnc32)cc1 [Compound 14b] | 5.71
CC(=O)N1CCC[C@@H](Nc2ncnc3c2nc(-c2ccccc2Cl)n3-c2ccc(Cl)cc2)C1 [Compound 15d] | 0.92
CCNC(=O)N1CCC[C@H](Nc2ncnc3c2nc(-c2ccccc2Cl)n3-c2ccc(Cl)cc2)C1 [Compound 16c] | 1.15
CS(=O)(=O)N1CCC(Nc2ncnc3c2nc(-c2ccccc2Cl)n3-c2ccc(Cl)cc2)CC1 [Compound 14g] | 1.65
CC(C)(C)NC(=O)NC1(c2ccccc2)CCN(c2ncnc3c2nc(-c2ccccc2Cl)n3-c2ccc(Cl)cc2)CC1 [Compound 13a] | 0.0192
